Target: KPC-2 β-lactamase (Klebsiella pneumoniae, UniProt Q9F663)
Construct: made in house; host or cells: E. coli BL21(DE3)
Sequence (Q9F663 25-293, looked up): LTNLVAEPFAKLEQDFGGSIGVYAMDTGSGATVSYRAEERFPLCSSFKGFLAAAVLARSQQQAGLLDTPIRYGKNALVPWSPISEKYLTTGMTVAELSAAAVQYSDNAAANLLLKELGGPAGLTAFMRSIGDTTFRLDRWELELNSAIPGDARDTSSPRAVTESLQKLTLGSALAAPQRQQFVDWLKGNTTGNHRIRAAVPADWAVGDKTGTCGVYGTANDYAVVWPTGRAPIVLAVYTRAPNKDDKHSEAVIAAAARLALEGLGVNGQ
Test: β-lactamase enzyme inhibition, KPC-2
Assay type: biochemical
Details: imipenem substrate, 300 nm; 15 min at 37° C. preincubation; read-out: IC50 KPC-2 (Class A)
reported_endpoint: IC50

"CN(C)S(=O)(=O)CCC(=O)N[C@H]1Cc2cccc(C(=O)O)c2OB1O" yielded IC50 of < 100 nM

GET /value?item= "O=C(CCn1cccn1)N[C@H]1Cc2cccc(C(=O)O)c2OB1O" &field=IC50 returns < 100 nM

For reference, reported IC50 for "CC(C)(C)C(=O)CCC(=O)N[C@H]1Cc2cccc(C(=O)O)c2OB1O" stands at < 100 nM

Per the records, this compound ( "CC(=O)/C=C/C(=O)N[C@H]1Cc2cccc(C(=O)O)c2OB1O" ) has IC50 equal to < 100 nM
